assayed system: dihydropyridine (DHP) site (Oryctolagus cuniculus)
Construct: Washed rabbit skeletal muscle membranes (fraction 2-8X)
Sequence (P07293 1-1664 limits assumed): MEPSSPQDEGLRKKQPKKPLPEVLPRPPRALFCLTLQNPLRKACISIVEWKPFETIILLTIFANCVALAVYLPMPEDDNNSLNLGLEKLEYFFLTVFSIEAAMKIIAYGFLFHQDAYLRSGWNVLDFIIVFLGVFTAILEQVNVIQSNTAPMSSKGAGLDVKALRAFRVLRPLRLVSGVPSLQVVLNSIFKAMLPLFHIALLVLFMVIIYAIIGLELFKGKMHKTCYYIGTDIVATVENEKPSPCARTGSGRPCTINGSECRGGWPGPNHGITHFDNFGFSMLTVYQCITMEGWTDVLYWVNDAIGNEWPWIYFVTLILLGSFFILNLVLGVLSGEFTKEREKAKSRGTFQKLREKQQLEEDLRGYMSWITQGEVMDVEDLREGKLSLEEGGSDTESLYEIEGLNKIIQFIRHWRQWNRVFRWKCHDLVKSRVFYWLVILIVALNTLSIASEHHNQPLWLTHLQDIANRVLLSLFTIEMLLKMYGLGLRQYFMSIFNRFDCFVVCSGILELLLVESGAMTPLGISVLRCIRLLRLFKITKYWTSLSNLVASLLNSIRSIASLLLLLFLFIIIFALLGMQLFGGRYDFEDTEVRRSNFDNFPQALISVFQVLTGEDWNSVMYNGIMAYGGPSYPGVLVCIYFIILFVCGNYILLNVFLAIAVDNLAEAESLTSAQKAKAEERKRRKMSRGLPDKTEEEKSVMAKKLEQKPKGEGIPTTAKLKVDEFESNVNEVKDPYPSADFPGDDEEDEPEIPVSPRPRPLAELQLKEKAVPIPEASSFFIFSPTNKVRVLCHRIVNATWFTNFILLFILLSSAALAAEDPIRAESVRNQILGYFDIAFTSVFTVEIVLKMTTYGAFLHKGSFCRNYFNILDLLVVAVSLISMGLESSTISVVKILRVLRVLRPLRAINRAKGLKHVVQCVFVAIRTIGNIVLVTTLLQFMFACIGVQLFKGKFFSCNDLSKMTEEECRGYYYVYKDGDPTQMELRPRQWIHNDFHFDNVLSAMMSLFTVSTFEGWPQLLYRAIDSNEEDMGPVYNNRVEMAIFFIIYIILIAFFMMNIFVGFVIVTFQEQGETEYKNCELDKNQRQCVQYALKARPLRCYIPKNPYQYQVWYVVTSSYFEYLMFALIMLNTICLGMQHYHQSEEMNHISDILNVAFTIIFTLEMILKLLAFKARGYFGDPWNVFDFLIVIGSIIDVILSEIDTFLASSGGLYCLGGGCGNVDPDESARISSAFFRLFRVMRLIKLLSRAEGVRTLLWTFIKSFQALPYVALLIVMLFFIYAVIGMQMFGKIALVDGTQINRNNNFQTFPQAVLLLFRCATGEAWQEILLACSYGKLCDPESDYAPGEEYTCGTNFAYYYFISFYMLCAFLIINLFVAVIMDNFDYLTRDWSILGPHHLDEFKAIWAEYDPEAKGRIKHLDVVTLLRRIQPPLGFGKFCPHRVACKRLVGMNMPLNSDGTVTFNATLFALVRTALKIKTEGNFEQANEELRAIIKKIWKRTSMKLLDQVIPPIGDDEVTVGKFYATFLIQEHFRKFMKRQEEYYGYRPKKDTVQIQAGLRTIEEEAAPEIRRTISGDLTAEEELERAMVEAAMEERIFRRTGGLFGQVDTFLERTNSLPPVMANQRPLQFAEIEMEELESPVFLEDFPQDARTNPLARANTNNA
Sequence (P13806 27-960 partner limits assumed): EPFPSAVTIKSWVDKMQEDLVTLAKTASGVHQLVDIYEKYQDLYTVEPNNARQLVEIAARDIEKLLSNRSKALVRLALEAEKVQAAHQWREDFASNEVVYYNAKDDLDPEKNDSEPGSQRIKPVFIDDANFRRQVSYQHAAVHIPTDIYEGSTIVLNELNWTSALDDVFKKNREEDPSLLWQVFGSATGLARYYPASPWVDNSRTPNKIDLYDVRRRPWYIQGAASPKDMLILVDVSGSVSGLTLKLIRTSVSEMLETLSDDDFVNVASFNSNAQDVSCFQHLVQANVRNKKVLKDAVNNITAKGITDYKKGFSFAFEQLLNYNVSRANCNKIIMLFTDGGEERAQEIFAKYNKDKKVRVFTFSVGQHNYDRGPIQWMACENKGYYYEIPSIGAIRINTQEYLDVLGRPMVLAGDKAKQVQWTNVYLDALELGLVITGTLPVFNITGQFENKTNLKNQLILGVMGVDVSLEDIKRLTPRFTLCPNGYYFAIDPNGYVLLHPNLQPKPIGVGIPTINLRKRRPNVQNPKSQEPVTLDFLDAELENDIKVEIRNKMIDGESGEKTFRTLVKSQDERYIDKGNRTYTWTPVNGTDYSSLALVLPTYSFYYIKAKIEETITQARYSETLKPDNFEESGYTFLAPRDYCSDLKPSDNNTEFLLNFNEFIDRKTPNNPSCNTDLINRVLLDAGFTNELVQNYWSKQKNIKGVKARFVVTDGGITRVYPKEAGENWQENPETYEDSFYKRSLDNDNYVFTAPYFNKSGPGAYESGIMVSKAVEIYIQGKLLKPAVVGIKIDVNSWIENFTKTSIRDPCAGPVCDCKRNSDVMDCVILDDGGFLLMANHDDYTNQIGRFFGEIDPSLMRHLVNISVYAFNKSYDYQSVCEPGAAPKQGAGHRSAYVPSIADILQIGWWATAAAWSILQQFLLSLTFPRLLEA
Sequence (P13806 961-1106 partner limits assumed): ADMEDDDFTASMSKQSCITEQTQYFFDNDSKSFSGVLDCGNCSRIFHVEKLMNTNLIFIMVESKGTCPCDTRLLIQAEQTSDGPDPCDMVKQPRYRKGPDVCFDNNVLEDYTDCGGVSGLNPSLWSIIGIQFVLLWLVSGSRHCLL
Sequence (P19517 whole entry partner): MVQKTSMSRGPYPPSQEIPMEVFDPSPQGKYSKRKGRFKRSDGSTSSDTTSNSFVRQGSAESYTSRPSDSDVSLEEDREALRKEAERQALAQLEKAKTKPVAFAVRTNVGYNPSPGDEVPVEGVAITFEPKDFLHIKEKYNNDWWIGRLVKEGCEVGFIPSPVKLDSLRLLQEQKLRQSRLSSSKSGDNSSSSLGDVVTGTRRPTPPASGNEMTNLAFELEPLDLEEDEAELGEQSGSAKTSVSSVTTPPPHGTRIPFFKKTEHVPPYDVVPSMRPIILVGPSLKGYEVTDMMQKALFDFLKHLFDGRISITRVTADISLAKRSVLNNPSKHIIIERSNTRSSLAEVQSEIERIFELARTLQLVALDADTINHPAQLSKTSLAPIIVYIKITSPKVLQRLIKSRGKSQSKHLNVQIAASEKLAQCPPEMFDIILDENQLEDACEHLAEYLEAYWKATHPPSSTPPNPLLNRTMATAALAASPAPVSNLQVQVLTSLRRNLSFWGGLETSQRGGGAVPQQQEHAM
Sequence (P19518 whole entry partner): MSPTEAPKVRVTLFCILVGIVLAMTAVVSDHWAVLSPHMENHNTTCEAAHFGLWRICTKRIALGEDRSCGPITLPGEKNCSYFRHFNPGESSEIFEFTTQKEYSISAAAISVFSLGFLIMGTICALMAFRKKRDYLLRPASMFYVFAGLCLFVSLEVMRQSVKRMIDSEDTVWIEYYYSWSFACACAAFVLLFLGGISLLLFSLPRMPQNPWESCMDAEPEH
protocol description: 3H-nitrendipine binding assay on washed rabbit skeletal muscle membranes
particulars: read-out: Binding Assay KI (moles)
List of log10 of Ki values.
// stored as log10 of Ki expressed in nM

Here is how some compounds turned out for log10 of Ki.
[[record]]
compound = "CCOC(=O)C1=C(CCN2C(=O)c3ccccc3C2=O)NC(CCN2C(=O)c3ccccc3C2=O)=C(C(=O)OCC)C1c1cccc([N+](=O)[O-])c1 [Example 13]"
metric = "log10 of Ki"
reported_result = 3.05

[[record]]
compound = "COC(=O)C1=C(C)NC(C)=C(C(=O)OCCCCCCN=C=S)C1c1cccc([N+](=O)[O-])c1 (stereo not shown) [Example 9]"
metric = "log10 of Ki"
reported_result = 0.28

[[record]]
compound = "COC(=O)C1=C(C)NC(C)=C(C(=O)OCCCN=C=S)C1c1cccc([N+](=O)[O-])c1 (stereo not shown) [Example 8]"
metric = "log10 of Ki"
reported_result = 0.20

[[record]]
compound = "COC(=O)C1=C(C)NC(C)=C(C(=O)OCCN=C=S)C1c1cccc([N+](=O)[O-])c1 (stereo not shown) [Example 7]"
metric = "log10 of Ki"
reported_result = 0.11

[[record]]
compound = "CCOC(=O)C1=C(CCN2C(=O)c3ccccc3C2=O)NC(C)=C(C(=O)OC)C1c1cccc([N+](=O)[O-])c1 (stereo not shown) [12(e)]"
metric = "log10 of Ki"
reported_result = 2.02


Now, please, on to the next compound.
# log10 of Ki of COC(=O)C1=C(C)NC(C)=C(C(=O)OCCN)C1c1cccc(C)c1 (stereo not shown) [Example 2] = 3.10
